The following molecules are listed with their measured efflux ratio at 90 min values.
- TEST_DETAILS: in vitro
- Format: in vitro ADME
- TEST_PARAMETERS: human; Caco-2 monolayer; ER>2 indicates potential efflux transporter substrate; read-out: ER (efflux ratio)
Reply with the value as a number alone.

Would you please look over these solved cases?
COMPOUND_STRING | REPORTED_MEASUREMENT
CC(C)CC(=O)OC[C@H]1O[C@@](C#N)(c2ccc3c(N)ncnn23)[C@H](O)[C@@H]1OC(=O)Cc1ccccc1 | 1
N#C[C@@]1(c2ccc3c(NC(=O)c4ccccc4)ncnn23)O[C@H](COC(=O)Cc2ccccc2)[C@@H](O)[C@H]1O | 1.8
CC(C)[C@H](N)C(=O)Nc1ncnn2c([C@]3(C#N)O[C@H](COC(=O)Cc4ccccc4)[C@@H](O)[C@H]3O)ccc12 | 320
CCCC(=O)Nc1ncnn2c([C@]3(C#N)O[C@H](COC(=O)Cc4ccccc4)[C@@H](OC(=O)[C@@H](N)C(C)C)[C@H]3O)ccc12 | 5.7
CNc1nc(N)nc2c1ncn2[C@@H]1O[C@H](COC(=O)Cc2ccccc2)[C@@H](OC(C)=O)[C@@]1(C)F | 0.45

In the following, a different molecule is considered.
Q: Return reported efflux ratio at 90 min; argument: CC(=O)OCOC(=O)Nc1ncnn2c([C@]3(C#N)O[C@H](COC(=O)Cc4ccccc4)[C@@H](OC(=O)[C@@H](N)C(C)C)[C@H]3O)ccc12
Result: 0.33

###

The following compounds are listed with their measured Papp B→A at 90 min values.
- TEST_DETAILS: in vitro
- Type: in vitro ADME
- TEST_PARAMETERS: human; Caco-2 monolayer, basolateral to apical, 90-minute incubation; read-out: Papp, B-A

COMPOUND | Papp B→A at 90 min
CCC(=O)O[C@H]1[C@@H](O)[C@](C#N)(c2ccc3c(N)ncnn23)O[C@@H]1COC(=O)[C@@H](N)C(C)C [Compound 39] | 2.3 ×10⁻⁶ cm/s
CC(C)CC(=O)O[C@H]1[C@@H](O)[C@](C#N)(c2ccc3c(N)ncnn23)O[C@@H]1COC(=O)Cc1ccccc1 [Compound 41] | 31 ×10⁻⁶ cm/s

Q: Return reported Papp B→A at 90 min; argument: CC(C)C(=O)OC[C@H]1O[C@@](C#N)(c2ccc3c(N)ncnn23)[C@H](O)[C@@H]1OC(=O)Cc1ccccc1 [Compound 60]
Result: 1.7 ×10⁻⁶ cm/s

###

- TEST_DETAILS: in vitro
- Assay type: in vitro ADME
- TEST_PARAMETERS: human, Caco-2
RESULT_TYPE: efflux ratio at 90 min
Reply with the value as a number alone.

Would you please look over these solved cases?
COMPOUND_STRING | efflux ratio at 90 min
CC(C)[C@H](N)C(=O)O[C@H]1[C@@H](O)[C@](C#N)(c2ccc3c(N)ncnn23)O[C@@H]1COC(=O)CC1CCCCC1 | 100
N#C[C@@]1(c2ccc3c(NC(=O)[C@@H](N)Cc4ccc(F)cc4)ncnn23)O[C@H](CO)[C@@H](OC(=O)CC2(N)CCCCC2)[C@H]1O | 43

In the following, a different molecule is considered.
Q: Return reported efflux ratio at 90 min; argument: CC(C)[C@H](N)C(=O)O[C@H]1[C@@H](OC(=O)[C@@H](N)C(C)C)[C@](C#N)(c2ccc3c(N)ncnn23)O[C@@H]1COC(=O)CC1CCCCC1
Result: 6

###

The following molecules are listed with their measured Papp B→A at 90 min values.
- TEST_DETAILS: in vitro
- Format: in vitro ADME
- TEST_PARAMETERS: human, Caco-2
The figure you give is taken to be in ×10⁻⁶ cm/s; do not add the unit.

Would you please look over these solved cases?
MOLECULE | SCALE_UNIT | Papp B→A at 90 min
CC(C)[C@H](N)C(=O)Nc1ncnn2c([C@]3(C#N)O[C@H](CO)[C@@H](O)[C@H]3O)ccc12 [Compound 83] | ×10⁻⁶ cm/s | 0.2
CCC(=O)OC[C@H]1O[C@@](C#N)(c2ccc3c(N)ncnn23)[C@H](O)[C@@H]1OCOC(=O)C(C)(C)C [Compound 72] | ×10⁻⁶ cm/s | 3.2
CNc1nc(N)nc2c1ncn2[C@@H]1O[C@H](COC(=O)C(C)C)[C@@H](OC(=O)CC(C)C)[C@@]1(C)F [Compound 187] | ×10⁻⁶ cm/s | 2.4
CCCCOC(=O)Nc1ncnn2c([C@]3(C#N)O[C@H](COC(=O)C(C)(C)C4CCCCC4)[C@@H](O)[C@H]3O)ccc12 [Compound 379] | ×10⁻⁶ cm/s | 2.5
CC(C)[C@H](N)C(=O)O[C@H]1[C@@H](O)[C@](C#N)(c2ccc3c(N)ncnn23)O[C@@H]1COC(=O)CC1CCCCC1 [Compound 27] | ×10⁻⁶ cm/s | 9.9

Q: Return reported Papp B→A at 90 min; argument: CCCCC(=O)Nc1ncnn2c([C@]3(C#N)O[C@H](COC(C)=O)[C@@H](O)[C@H]3O)ccc12 [Compound 288]
Result: 6.9

Q: Return reported Papp B→A at 90 min; argument: CCC(=O)O[C@H]1[C@@H](O)[C@](C#N)(c2ccc3c(N)ncnn23)O[C@@H]1COC(=O)CC1CCCCC1 [Compound 31]
Result: 5.6

###

- TEST_DETAILS: in vitro
- Format: in vitro ADME
- TEST_PARAMETERS: human; Caco-2 monolayer; ER>2 indicates potential efflux transporter substrate; read-out: ER (efflux ratio)
The following compounds are listed with their measured efflux ratio at 90 min values.

Q: Return reported efflux ratio at 90 min; argument: CCCCCOC(=O)Nc1ncnn2c([C@]3(C#N)O[C@H](COC(=O)CC)[C@@H](O)[C@H]3O)ccc12
Result: 2.1

###

- TEST_DETAILS: in vitro
- Format: in vitro ADME
- TEST_PARAMETERS: human; Caco-2 monolayer, basolateral to apical, 90-minute incubation; read-out: Papp, B-A
The following compounds are listed with their measured Papp B→A at 90 min values.
Answers without a unit are incomplete; give the number and then its unit.

COMPOUND_STRING | Papp B→A at 90 min
CC(C)CC(=O)OC[C@H]1O[C@@](C#N)(c2ccc3c(N)ncnn23)[C@H](O)[C@@H]1OC(=O)Cc1ccccc1 | 98 nm/s

Q: Return reported Papp B→A at 90 min; argument: CC(C)[C@H](N)C(=O)O[C@H]1[C@@H](OC(=O)[C@@H](N)C(C)C)[C@](C#N)(c2ccc3c(N)ncnn23)O[C@@H]1COC(=O)Cc1ccccc1
Result: 9.2 nm/s

Q: Return reported Papp B→A at 90 min; argument: CCC(=O)OC[C@H]1O[C@@](C#N)(c2ccc3c(N)ncnn23)[C@H](O)[C@@H]1O
Result: 70 nm/s

###

The following compounds are listed with their measured Papp A→B at 90 min values.
- TEST_DETAILS: in vitro
- Assay type: in vitro ADME
- TEST_PARAMETERS: human; Caco-2 monolayer, apical to basolateral, 90-minute incubation; read-out: Papp, A-B
The figure you give is taken to be in nm/s; do not add the unit.

Would you please look over these solved cases?
COMPOUND | RESULT_TYPE | REPORTED_MEASUREMENT
CC(C)[C@H](N)C(=O)Nc1ncnn2c([C@]3(C#N)O[C@H](COC(=O)Cc4ccccc4)[C@@H](O)[C@H]3O)ccc12 [Compound 113] | Papp A→B at 90 min | 0.1
CC(=O)O[C@H]1[C@@H](O)[C@](C#N)(c2ccc3c(N)ncnn23)O[C@@H]1COC(=O)Cc1ccccc1 [Compound 45] | Papp A→B at 90 min | 8
CC(C)CC(=O)O[C@H]1[C@@H](O)[C@](C#N)(c2ccc3c(N)ncnn23)O[C@@H]1COC(=O)Cc1ccccc1 [Compound 41] | Papp A→B at 90 min | 190
CC(C)C(=O)OC[C@H]1O[C@@](C#N)(c2ccc3c(N)ncnn23)[C@H](O)[C@@H]1OC(=O)Cc1ccccc1 [Compound 60] | Papp A→B at 90 min | 28
CC(C)CC(=O)OC[C@H]1O[C@@](C#N)(c2ccc3c(N)ncnn23)[C@H](O)[C@@H]1OC(=O)Cc1ccccc1 [Compound 20] | Papp A→B at 90 min | 100

Q: Return reported Papp A→B at 90 min; argument: CC(C)C(=O)Nc1ncnn2c([C@]3(C#N)O[C@H](COC(=O)Cc4ccccc4)[C@@H](OC(=O)[C@@H](N)C(C)(C)C)[C@H]3O)ccc12 [Compound 401]
Result: 38

Q: Return reported Papp A→B at 90 min; argument: CCCCCOC(=O)Nc1ncnn2c([C@]3(C#N)O[C@H](COC(=O)CC)[C@@H](O)[C@H]3O)ccc12 [Compound 91]
Result: 19

Q: Return reported Papp A→B at 90 min; argument: CCCCC(=O)Nc1ncnn2c([C@]3(C#N)O[C@H](COC(=O)Cc4ccccc4)[C@@H](O)[C@H]3O)ccc12 [Compound 277]
Result: 4.7
